// provenance: PubChem BioAssay AID463190

Experiment: growth inhibitors of tim10-1 mutant yeast, primary screen, luminescence, uHTS (AID 463190);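 further: mutant grown at 25 °C; 0% = DMSO wells with yeast and 100% = wells holding no yeast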
Measurement setup: S. cerevisiae tim10-1 ts strain growth, BacTiter-Glo, 24 h; at 20 µM; active compounds read high
Among all 330,000 compounds or so, about 7,300 (2.2%) were called active. Shown is part of a subset that was picked to be rich in actives.
So I've got a bunch of compounds here, and I need their inhibition values.
One number for each entry, in %.

Study these solved cases before continuing.
Compound	Metric	Readout number
CCOC(=O)CC(NC(=O)C1c2ccccc2Oc2ccccc21)c1ccc(C)cc1 (stereo not given)	inhibition	5.58
O=C(NC1CCCCC1)c1ccc(-c2ccc(Cl)cc2)o1	inhibition	46.1
O=C(O)CCCCCCCCc1cn(CN2C(=O)c3ccccc3C2=O)nn1	inhibition	-13.2
CCOC(=O)Cn1c(O)c(N=NC(=O)CNC(=O)Cc2ccccc2)c2ccccc21	inhibition	-11.5
CCCCN(CCCC)CC(O)Cn1c2ccccc2c(=O)c2ccccc21 (stereo not given)	inhibition	14.3
O=c1c2cc(-c3ccccc3)sc2nc2n1N=C(c1cccs1)CS2	inhibition	20.5

Kindly give each listed record's inhibition.
1. COCCNC(=O)CSc1nc2c(n1-c1ccccc1)CCCC2
2. O=C1N=C2SCCN2/C1=C\c1c(Cl)cccc1Cl

Result:
12
-18.2

Kindly give each listed record's inhibition.
1. O=C(CNC(=O)c1ccccc1)NCC(=O)OCc1ccc(Cl)cc1
2. NC(=O)CC[C@@H]1NC(=O)[C@H](CO)NC(=O)c2cc([N+](=O)[O-])cc(I)c2NCC[C@@H](C(N)=O)NC1=O

Result:
1: -23.2; 2: -26.8
